Tested Target: T1, CRBN, Q96SW2;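 note: pooled lentiviral library of zinc finger degron-EGFP fusions in mCherry-positive Jurkat cells, FACS-sorted after compound exposure, with degron abundance counted by next-generation sequencing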
T1 chain: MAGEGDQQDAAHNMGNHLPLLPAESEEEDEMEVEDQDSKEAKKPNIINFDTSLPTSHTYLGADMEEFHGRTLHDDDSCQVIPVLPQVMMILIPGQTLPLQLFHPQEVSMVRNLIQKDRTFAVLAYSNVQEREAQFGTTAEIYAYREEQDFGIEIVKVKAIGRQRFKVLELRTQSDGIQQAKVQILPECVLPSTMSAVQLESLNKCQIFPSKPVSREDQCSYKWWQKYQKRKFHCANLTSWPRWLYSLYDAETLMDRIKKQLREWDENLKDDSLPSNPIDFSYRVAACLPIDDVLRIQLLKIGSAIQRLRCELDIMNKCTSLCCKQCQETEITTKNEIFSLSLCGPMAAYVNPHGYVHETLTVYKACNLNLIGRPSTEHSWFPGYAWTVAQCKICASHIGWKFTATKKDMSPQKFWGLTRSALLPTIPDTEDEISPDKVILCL
Assay Explanation: log2 fold change of degron read counts, EGFP-low vs EGFP+ sorted cells (limma voom), compound-induced degradation; higher = more compound-induced degradation of the degron-EGFP fusion; degrons are variants of IKZF1/3 zinc finger 2; compound dose not given here
Condition: Jurkat; 18 h; compound: compound 33 (diphenyl IMiD analogue)
Whole data set: some 8,300 sequences, median “log2 fold change of degron read counts, EGFP-low vs EGFP+ sorted cells (limma voom), compound-induced degradation” near -1.1, cut for the highest 2% near 3.2. For the sample, the highest values were picked, then their nearest neighbours and some sequences at random.
Entry flag: t if log2 fold change of degron read counts reaches 0.2; f if it does not.

Seq Text | Label Value
FVCEVCGAAFTQKGNLLRHIKL [46F_47V_49E_50V_52G_53A_54A_55F_67L_, Q9UKT9] | t
FVCEVCGAHFTQKGNLLRHIKL [46F_47V_49E_50V_52G_53A_54H_55F_67L_, Q9UKT9] | t
FFCSVCGHEFTQKGNLLRHIKL [46F_47F_49S_50V_52G_53H_54E_55F_67L_, Q9UKT9] | f
FRCDVCGAKFTQKGNLLRHIKL [46F_47R_49D_50V_52G_53A_54K_55F_67L_, Q9UKT9] | f
FRCEVCGAAFTQKGNLLRHIKL [46F_47R_49E_50V_52G_53A_54A_55F_67L_, Q9UKT9] | t
FICEVCGAAFTQKGNLLRHIKL [46F_47I_49E_50V_52G_53A_54A_55F_67L_, Q9UKT9] | t

The values you see were collected from the supplement of paper PMC12645437.
